assay: Identification of proteins required for the processing of the EWS-FLI1 nascent transcript; settings: TC32 Ewing sarcoma NR0B1-luc vs CMV-luc, 48 h; screened at 20 nM (by protocol);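 note: robust z of luciferase light less the median z of siRNAs with the same seed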
The full ranking holds about 59,000 sequences; the median of the read-out is about -0.00055, and the lowest 2% start at about -2. The full list was thinned out, with the lowest values kept by preference.
Measured Property: seed-corrected z-score
Form: value (number only, do not type unit).

These recorded examples may help you get a feel for the data.
{"Sequence String": "UCUGGUUCAGCAUGAGCUG against SYT8", "Obs Value": -2.2}
{"Sequence String": "AAACUGACAAGUAGACUGG against ANKRD27", "Obs Value": -0.601}
{"Sequence String": "UUCGGGUUGUUCUUUUUCC against TCHP", "Obs Value": 0.00716}
{"Sequence String": "UUCGCCUCUUGUGCUAUCG against CFAP221", "Obs Value": 0.264}
{"Sequence String": "UAGCCGCUGACUUUGAUGC against SLC39A13", "Obs Value": 0.264}

Read the next record carefully.
Form: sequence = UACCCAAUAAAGGUCUACC against LMO2 ; seed-corrected z-score = 0.642

---

test: Identification of proteins required for the processing of the EWS-FLI1 nascent transcript; conditions: TC32 Ewing sarcoma NR0B1-luc vs CMV-luc, 48 h; screened at 20 nM (by protocol);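 note: robust z of luciferase light less the median z of siRNAs with the same seed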
Whole data set: some 59,000 sequences, median the read-out near -0.00055, cut for the lowest 2% near -2. Shown is part of a subset that was picked to be rich in the lowest values.
Assign labels as follows, please: 1 for seed-corrected z-score below -0.08; 0 for seed-corrected z-score equal to or exceeding -0.08.

Here are 2 sequences together with their reported answers.
{"Sequence String": "AAAUGUCUUAGGGAUUGGG against ITPRIPL1", "Label Class": 1}
{"Sequence String": "UCUGUUUUCAGGUGCAUCC against AHRR", "Label Class": 1}

I'd appreciate it if you could check whether UAUUGAAGCAACUAGGAUG against KIAA0754 has seed-corrected z-score smaller than -0.08.
1

Does this sequence meet the criterion seed-corrected z-score < -0.08? UGAAAAGCGCUGCUUAACC against PRSS45
0

Could you please tell me whether seed-corrected z-score recorded for AAAGAUUGAGGUGGUAUGC against YTHDF3 is less than -0.08?
1

Is -0.08 strictly greater than the sequence's reported seed-corrected z-score? sequence: AAAGUAAAGAUAUGCGUGU against TBX21
0

Is it true that seed-corrected z-score reported for ACAUGAUCAACUGGUAGUC against TTBK1 is less than -0.08?
1

---

This section presents sequences with their documented seed-corrected z-score values.
test: Identification of proteins required for the processing of the EWS-FLI1 nascent transcript; details: TC32 Ewing sarcoma NR0B1-luc vs CMV-luc (EWS-FLI1 target promoter against control promoter), 48 h; screened at 20 nM (by protocol);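 note: robust z of luciferase light less the median z of siRNAs with the same seed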
Whole data set: some 59,000 sequences, median the read-out near -0.00055, cut for the lowest 2% near -2. The sample as a whole holds a higher share of the lowest values than the screen did.
Respond numerically, and do not add a unit to the figure.

Looking up AAAGUCUCCAGUUAAUAGC against MRPL46 , I found its seed-corrected z-score recorded as 1.41

Data point: UCCAGUAGCACCAUAGUUC against ZNF449 ; seed-corrected z-score = -0.629

Value of seed-corrected z-score reported for the sequence UUCUGCAUCAUAAUUGUCG against ADPRHL1 is -0.679

The values you see were collected from PubChem BioAssay AID1159506.
